system: PC-3; test: Antiproliferative activity against human PC-3 cells assessed as inhibition of cell growth measured after 48 hrs by resazurin staining based analysis; type: functional; conditions: PC-3, 48 h
pIC50: −log10 of the molar value.
MEASURED_ATTRIBUTE: pIC50

I am curious: what pIC50 value has been reported for CC1=N[C@H](C(=O)O)Cc2c[nH]c3c(O)ccc1c23 ? < 4.00

The origin of these recorded values is ChEMBL document CHEMBL5360586.
